Below is a list of entries, each paired with its recorded composite z-score value.
Experiment: small-molecule microarray binders of probe aLefty2, primary screen, biochemical, biotinylated probe, 635/667 nm fluorescence (AID 1094);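 note: score merges spot fluorescence near 667 nm with spot signal-to-noise ratio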
Details: higher = more signal
Respond using a number only.

Known results for compounds:
>  <Test Smiles>
COCCOC(=O)N1C(=O)[C@@]2(c3ccccc31)[C@H](c1ccc(O)cc1)N1[C@H](c3ccccc3)[C@H](c3ccccc3)OC(=O)[C@H]1[C@@H]2C(=O)N1CCc2cc(OC)c(OC)cc2C1

>  <composite z-score>
0.0191

$$$$
>  <Test Smiles>
COCCOC(=O)N1C(=O)[C@@]2(c3cc(C#CCNC(N)=O)ccc31)[C@H](C(=O)N1CCc3cc(OC)c(OC)cc3C1)[C@H]1C(=O)O[C@H](c3ccccc3)[C@H](c3ccccc3)N1[C@@H]2c1ccc(OCCO)cc1

>  <composite z-score>
-0.0163

$$$$
>  <Test Smiles>
O=C(CS)NCCCCCCNC(=O)[C@@H]1C[C@@H]2C(=O)N3CCC[C@H]3C(=O)N2[C@@H]1c1ccc(O)cc1

>  <composite z-score>
-0.0903

$$$$
>  <Test Smiles>
CC(C)(C)OC(=O)CC[C@@]1(C(=O)NCCN2CCOCC2)N=C(c2ccc(OCCCO)cc2)O[C@@H]1c1ccccc1

>  <composite z-score>
0.37

$$$$
>  <Test Smiles>
CCOC(=O)C[C@H]1[C@H](OC(=O)c2ccc(-c3ccccc3)cc2)[C@@H](NC(=O)c2ccc(-c3ccccc3)cc2)c2cc(OCCCO)ccc2N1C(=O)Cc1ccc(OC)cc1

>  <composite z-score>
-0.0196

$$$$

Query (compound): COc1ccc([Si](C)(C)[C@@H]2[C@@H](CCn3cc([C@H](O)c4ccccc4)nn3)O[C@]3(C(=O)N(Cc4ccc(N5C(=O)c6cccc7cccc5c67)cc4)c4ccccc43)[C@H]2C)cc1 ; field requested: composite z-score
-0.0237

====

Test: adipocyte viability effects, profiling panel, cell-based, 3T3-L1 adipocytes, calcein-AM fluorescence, 48 h, basal (AID 1163); note: test concentration not given here
Conditions: 3T3-L1 adipocytes viability, higher = more signal
y if z-score is below 0.6. n if not; exact matches included in n.

As a guide, the following entries are already answered.
>  <Molecule>
O=c1oc(-c2ccccc2)nc2cc(Br)ccc12

>  <Category>
y

$$$$
>  <Molecule>
COC(=O)[C@@]1(Cc2ccc(F)cc2)[C@H]2c3cc(C(=O)N(C)C)n(CCc4ccccn4)c3C[C@H]2CN1C(=O)c1ccccc1

>  <Category>
n

$$$$
>  <Molecule>
CCCCCCCCCCC(O)C1C=CC2C(=O)N(Cc3ccccc3)C(=O)C2N1n1cnnc1 (stereo not drawn)

>  <Category>
y

$$$$
>  <Molecule>
CO[C@H]1O[C@H](CO)[C@@H](OC(=O)Nc2ccc3c(c2)OCO3)[C@H](OC(=O)Nc2ccccc2)[C@H]1OC(=O)Nc1ccccc1

>  <Category>
n

$$$$
>  <Molecule>
C[C@]1(C(=O)NCc2ccccc2)c2ccccc2C(=O)N(Cc2ccc(OC(F)(F)F)cc2)[C@H]1c1ccc(CO)cc1

>  <Category>
n

$$$$

Turning now to a further record.
Record O=C1N(CCS(=O)(=O)c2ccccc2)Cc2ccccc2[C@H]2OC(c3ccc(OCCCO)cc3)=N[C@@]12CCS(=O)(=O)c1ccccc1 : is its z-score strictly below 0.6?
n

====

Test: basal HepG2 mitochondrial membrane potential changes, profiling panel, cell-based, JC-1 fluorescence, 24 h, 100 nL compound (AID 1167); note: test concentration not given here
Conditions: higher = more signal
Hi, to clarify the labels: yes covers z-score from 0.7 upward, no covers anything below 0.7.

Threshold query (z-score >= 0.7) on CC(=O)Nc1cc(Br)ccc1C(=O)O
no

Threshold query (z-score >= 0.7) on COc1ccc(CCNC(=O)[C@@]2(c3ccc([N+](=O)[O-])cc3)CC(=O)N(CC34CC5CC(CC(C5)C3)C4)[C@@H]2c2ccc(CO)cc2)cc1
yes

Threshold query (z-score >= 0.7) on CC(C)C(=C=CC[C@@H](O)c1ccccc1OCCO)C[C@@H](O)c1ccccn1
no

====

Assay: PSAC antagonists in infected red cells, primary screen, cell-based, P. falciparum Indochina, OD700, 18 h (AID 1157)
Conditions: P. falciparum Indochina infected erythrocytes, osmotic lysis OD700, 18 h; higher = more signal, called active from +8 up or from −8 down
Below is a list of entries, each paired with its recorded z-score value.
Respond using a number only.

Known results for compounds:
>  <Compound>
C=CCOC(=O)[C@@H]1[C@H]2C(=O)O[C@H](c3ccccc3)[C@H](c3ccccc3)N2[C@H](c2ccc(OCCOC(=O)[C@@H]3C[C@@H]4C(=O)N[C@@H](Cc5ccccc5)C(=O)N4[C@@H]3c3cccc(OCCO)c3)cc2)[C@@]12C(=O)Nc1ccc(I)cc12

>  <Observed Measurement>
1.31

$$$$
>  <Compound>
CCOC(=O)C1=CCC(c2ccc([N+](=O)[O-])cc2)N(S(=O)(=O)c2ccc(C)cc2)C1 (centres undefined)

>  <Observed Measurement>
0.781

$$$$
>  <Compound>
CCOC(=O)C1=CC[C@@H](c2ccccc2Cl)N(S(=O)(=O)c2ccc(C)cc2)C1

>  <Observed Measurement>
-1.69

$$$$
>  <Compound>
COCCCNC(=O)[C@@]1(C)c2ccccc2C(=O)N(Cc2cc(C(F)(F)F)cc(C(F)(F)F)c2)[C@H]1c1ccc(CO)cc1

>  <Observed Measurement>
0.472

$$$$
>  <Compound>
CCOC(=O)C[C@H]1[C@H](OC(=O)c2ccc(-c3ccccc3)cc2)[C@@H](NC(=O)c2ccc(-c3ccccc3)cc2)c2cc(OCCCO)ccc2N1C(=O)Cc1ccc(OC)cc1

>  <Observed Measurement>
0.602

$$$$
>  <Compound>
C[C@]1(C(=O)NCc2ccccc2)c2ccccc2C(=O)N(Cc2ccc(OC(F)(F)F)cc2)[C@H]1c1ccc(CO)cc1

>  <Observed Measurement>
-0.779

$$$$
>  <Compound>
C[C@]1(C(=O)NCc2ccccc2)c2ccccc2C(=O)N(Cc2cc(F)cc(C(F)(F)F)c2)[C@H]1c1ccc(CO)cc1

>  <Observed Measurement>
0.38

$$$$
>  <Compound>
C=CC[C@@H](OC(=O)Nc1ccc(OC)cc1)c1ccc(O)c2ccccc12

>  <Observed Measurement>
0.279

$$$$

Query (compound): COc1ccc(C#Cc2ccc3c(c2)[C@]2(C(=O)N3)[C@H](C(=O)NC[C@H](O)c3ccccc3)[C@H]3C(=O)O[C@H](c4ccccc4)[C@H](c4ccccc4)N3[C@@H]2c2ccccc2OCCO)cc1 ; field requested: z-score
1.41

====

Below is a list of entries, each paired with its recorded composite z-score value.
System: wheat germ agglutinin (Triticum aestivum), Alexa647-labelled
Experiment: wheat germ agglutinin binders on compound microarrays, profiling panel, artefact control for SMM control-protein annotation, biochemical, small-molecule microarray, 635/667 nm fluorescence (AID 1140);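 note: score merges 667 nm feature emission with signal to noise over triplicate slides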
Settings: WGA-A647 binding, 635 nm fluorescence, higher = more signal
Respond using a number only.

>  <Molecule>
C=CCOC(=O)[C@@H]1[C@H]2C(=O)O[C@H](c3ccccc3)[C@H](c3ccccc3)N2[C@H](c2ccc(OCCOC(=O)[C@@H]3C[C@@H]4C(=O)N[C@@H](Cc5ccccc5)C(=O)N4[C@@H]3c3cccc(OCCO)c3)cc2)[C@@]12C(=O)Nc1ccc(I)cc12

>  <composite z-score>
0.181

$$$$
>  <Molecule>
COc1cccc(C(=O)O[C@H]2CC[C@]3(C)C4=C(CCC3C2(C)C)[C@]2(C)CC[C@H]([C@H](C)CCCC(C)C)[C@@]2(C)CC4)c1 (some centres not stated)

>  <composite z-score>
0.258

$$$$
>  <Molecule>
O=C1C=CC(=O)[C@@H]2CC(COc3ccccc3)=C3[C@@H](CCc4ccccc4)OB(O)C[C@@H]3[C@H]12

>  <composite z-score>
-0.158

$$$$
>  <Molecule>
O=C1c2ccccc2[C@@]2(Cc3ccccc3N(Cc3ccccc3)C2=O)[C@H](c2ccc(CO)cc2)N1C1CCCCC1

>  <composite z-score>
0.0291

$$$$
>  <Molecule>
COCCOC(=O)N1C(=O)[C@@]2(c3cc(C#CCNC(N)=O)ccc31)[C@H](C(=O)N1CCN(c3ncccn3)CC1)[C@H]1C(=O)O[C@H](c3ccccc3)[C@H](c3ccccc3)N1[C@@H]2c1ccccc1OCCO

>  <composite z-score>
0.749

$$$$

Query composite z-score on wheat germ agglutinin (Triticum aestivum), Alexa647-labelled for CC(C)N1C(=O)C[C@@](C(=O)NCc2ccccc2)(c2ccc([N+](=O)[O-])cc2)[C@H]1c1ccc(CO)cc1
0.549

Query composite z-score on wheat germ agglutinin (Triticum aestivum), Alexa647-labelled for O=c1oc(-c2ccccc2)nc2cc(Br)ccc12
0.466

====

Target: Follistatin (Homo sapiens) (UniProt P19883)
Sequence (P19883 whole entry, looked up): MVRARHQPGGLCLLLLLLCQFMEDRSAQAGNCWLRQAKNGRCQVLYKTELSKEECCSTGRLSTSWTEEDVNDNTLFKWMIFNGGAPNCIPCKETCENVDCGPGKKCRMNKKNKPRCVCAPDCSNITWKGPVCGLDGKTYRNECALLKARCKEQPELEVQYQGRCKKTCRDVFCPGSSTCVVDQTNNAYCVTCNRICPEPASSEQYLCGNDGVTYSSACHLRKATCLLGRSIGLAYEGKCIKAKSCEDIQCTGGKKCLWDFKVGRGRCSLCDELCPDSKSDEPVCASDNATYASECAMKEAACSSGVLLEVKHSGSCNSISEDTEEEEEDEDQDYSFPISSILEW
Test: follistatin binders on small-molecule microarrays, primary screen, biochemical, small-molecule microarray, 635/667 nm fluorescence (AID 1132)
Settings: FST binding, 635 nm fluorescence, higher = more signal
Property Label: composite z-score
Respond using a number only.

Known results for compounds:
>  <Compound>
C=C[C@@H](COC(C)=O)N(Cc1ccc([N+](=O)[O-])cc1)S(=O)(=O)c1ccc(Br)cc1

>  <composite z-score>
0.631

$$$$
>  <Compound>
CCCNC(=O)[C@@]1(c2ccc([N+](=O)[O-])cc2)CC(=O)N(CC23CC4CC(CC(C4)C2)C3)[C@@H]1c1ccc(CO)cc1

>  <composite z-score>
0.509

$$$$
>  <Compound>
NC(=O)NCC#Cc1ccc2c(c1)[C@]1(C(=O)N2)[C@H](C(=O)NC[C@H](O)c2ccccc2)[C@H]2C(=O)O[C@H](c3ccccc3)[C@H](c3ccccc3)N2[C@@H]1c1ccc(O)cc1

>  <composite z-score>
1.17

$$$$
>  <Compound>
Cc1cc(C)c(C(O)C2C=CC3C(=O)N(c4ccccc4)C(=O)C3N2Nc2ccc(C#N)cc2)c(C)c1 (stereo unspecified)

>  <composite z-score>
0.509

$$$$
>  <Compound>
O=c1cccc(C=Cc2ccccc2)o1

>  <composite z-score>
-0.723

$$$$
>  <Compound>
O=C1OCC=C[C@H]2OC34C=CCN(c5ccc(Cl)cc5)C(=O)[C@H]3N(CCCCCCO)C(=O)[C@@H]4[C@@H]12 (stereo partly specified)

>  <composite z-score>
-1.57

$$$$

Query composite z-score on Follistatin (Homo sapiens) (UniProt P19883) for COc1ccc(C#Cc2ccc3c(c2)[C@]2(C(=O)N3)[C@H](C(=O)NC[C@H](O)c3ccccc3)[C@H]3C(=O)O[C@H](c4ccccc4)[C@H](c4ccccc4)N3[C@@H]2c2ccc(OCCO)cc2)cc1
1.36

Query composite z-score on Follistatin (Homo sapiens) (UniProt P19883) for CCOC(=O)[C@H]1C/C=C/C[C@H](C(=O)OCC)C(=O)O[C@H]2[C@@H](OC)O[C@H](CO)[C@@H](OC(=O)Nc3ccc4c(c3)OCO4)[C@@H]2OC1=O
-0.114

Query composite z-score on Follistatin (Homo sapiens) (UniProt P19883) for C=C(C(=O)CC[C@H](OC(C)=O)c1ccc(OCCO)cc1)C(C)C
1.4

Query composite z-score on Follistatin (Homo sapiens) (UniProt P19883) for CN1C(=O)C2C(C1=O)C1C=C(CCCO)C2C(c2cccs2)N1C (stereo unspecified)
0.143
